B1: glmS ribozyme (parent)
chain: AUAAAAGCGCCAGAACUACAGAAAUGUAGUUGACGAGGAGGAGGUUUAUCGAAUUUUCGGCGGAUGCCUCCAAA

Variants of: B1
Experiment: self-cleavage kobs at 640 uM GlcN6P; higher = faster cleavage; RNA array
Details: with glucosamine-6-phosphate
Fewer inactive variants are shown than the library holds.
Each record here notes measured self-cleavage kobs at 640 uM GlcN6P.

Examples with their reported self-cleavage kobs at 640 uM GlcN6P follow.
Sequence Record	Value Kind	Recorded Result
AUAAAAGCGCCAGAACUACAGAAAUGUAGUUGACGAGGAGGAGGUUUAUCGAAUUUUUGGCGGAUGUCACCAAA [C58U C67U U69A]	self-cleavage kobs at 640 uM GlcN6P	6.03e-05 s⁻¹
AUAAAAGCGCUAGAACUACAGAAAUGUAGUUGACCAGGAGGAGGUAUAUCGAAUUUUCGGCGGAUGCCGCCAAA [C11U G35C U46A U69G]	self-cleavage kobs at 640 uM GlcN6P	< 1e-05 s⁻¹
AUAAAAGUGCCAGAACUACAGAAAUGUAGUUGACGACGGGGAGGUUUAUCGAAUUUUCGGCGGAUGCCUCCAAA [C8U G37C A39G]	self-cleavage kobs at 640 uM GlcN6P	< 1e-05 s⁻¹

# input variant: AUAAAAGCGGCAGAACUACAGAAAUGUAGUUGACGAGGAGGAGGUUUAUCGAAUUUUCGGCGGAAGCCUCCAAA [C10G U65A] ; wanted: its self-cleavage kobs at 640 uM GlcN6P
< 1e-05 s⁻¹

Item under review: AUAAAAGCGCCAGAACUACAGAAAUGUAGAUGACGAGGAGGAGGUUUAUCGAAUUUUCGGCGGAUGGCUCCAAA [U30A C67G] . Reported self-cleavage kobs at 640 uM GlcN6P?
5.03e-05 s⁻¹

Form field: reported self-cleavage kobs at 640 uM GlcN6P of AUAAAAGCGCCCGAAUUACAGAAAUGUAGUUGACGAGGAGGAGGUUUAUCGAAUUUUCGGCGGAUGCCUCCAAA [A12C C16U]
0.00435 s⁻¹

Using the record for AUAAAAGCGCCUGAACUACAGAAAUGUAGUUUACGAGGAGAAGGUUUAUCGAAUUAUCGGCGGUAGCCUCCAAA [A12U G32U G41A U56A A64U U65A] , report its self-cleavage kobs at 640 uM GlcN6P.
< 1e-05 s⁻¹
